B1: CCND1 (parent)
chain: IRRAYPDANLLNDRVLRAMLKAEE

variants of: B1; assay: protein stability index of a GFP-peptide fusion (GPS, HEK-293T) (PSI 1-6); higher = more stable; details: c terminus: a fixed tail appended;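 further: lentivirally expressed fusions sorted by FACS into six bins by GFP to DsRed ratio, PSI derived from sequencing read proportions per bin multiplied by bin number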
Entries annotated with measured protein stability index
API doc: respond with a numeric literal and nothing else, no unit.

{"columns": ["sequence string", "protein stability index"],
 "data": [
  ["IRRAYPDANLLNDRVLRAMLKAEF", 1.55],
  ["IRRAYPDANLLNDRVLRAMNKAEE", 3.45],
  ["IRRAYPDANLLNDRVVRAMLKAEE", 2.94],
  ["IRRAYPDANLLNDRWLRAMLKAEE", 3.47],
  ["IRRAYPDANLLNDRVLRAMLKMEE", 2.41]
]}

Now for a further variant.
Supply reported protein stability index belonging to this variant: IRRVYPDANLLNDRVLRAMLKAEE
1.79

Data credit: the supplement of paper PMC10567573
